Tested on: NCI/ADR-RES
Test: NCI tumour cell line growth inhibition, 48 h
Activity calls are given as the source filed them. Cut-off read from the data, not from the text of the source: active = GI50 up to about 1.1 µM and inactive = higher.
QUANTITY MEASURED: GI50

COC(=O)[C@@H]1OC(C)(c2ccccc2)O[C@H]1C(=O)OC: > 100 µM (inactive)
O=C1CS[C@@](CC(c2ccc(Cl)cc2)c2ccc(Cl)cc2)(c2ccc(Cl)cc2)N1: 8.17 µM (inactive)
CCC(C)(C)c1ccc(OCCCCNC(=O)c2ccc3ccccc3c2O)c(C(C)(C)CC)c1: 25.4 µM (inactive)

Enter reported GI50 observed with NCI/ADR-RES for CC(C)C1CNC(=O)C2(/C=N/C(C(C)C)CNC(=O)C3(/C=N/1)CCCO3)CCCO2 (stereo not given)
> 10 µM (inactive)

Record: `Cc1c2c(cc3c1C(=O)C(O)=C([C@@H](C)CO)C3=O)C(C)(C)CCC2`
23.3 µM (inactive)

====

Test system: SR
Experiment: NCI tumour cell line growth inhibition, 48 h
Activity calls are given as the source filed them. Rule as the data show it: active = GI50 up to about 1.1 µM and inactive = higher.
Reported GI50 values for a set of compounds

The following compounds have reported results that may help.
O=C(CCCn1cnc([N+](=O)[O-])n1)NCCCn1ccnc1[N+](=O)[O-]: > 100 µM (inactive)
COCc1cc2c(s1)C(=O)C1=C(C2=O)C2(C=C(Br)C(=O)C(Br)=C2)CCN1: 1.49 µM (inactive)
CC(C)(C)OC(=O)NCC(c1c[nH]c2ccccc12)c1c[nH]c2ccccc12: 14.9 µM (inactive)

Now take the following compound into account.
Param item = COc1ccc2nc3ccc(OC)cc3c(SCC3CO3)c2c1 (centres undefined) ; retrieve measured GI50.
6.89 µM (inactive)

====

Test system: HOP-62
Assay: NCI tumour cell line growth inhibition, 48 h
Calls of active or inactive are those of the source. Cut-off read from the data, not from the text of the source: active = GI50 up to about 1.1 µM and inactive = higher.
Choose the fitting class; nothing outside T for active, F for inactive is accepted.

CSCCC(N)C(=O)NCCNc1ccc(NCCNC(=O)C(N)CCSC)c2c1C(=O)c1ccccc1C2=O (stereo unspecified): T
COc1cc(OC)c(SSCCCCS(=O)O)c(OC)c1: F
Cc1cc2c3ccccc3[nH]c2c2ccnc(C)c12: F
O=C1/C(=C/c2ccccc2)CN(C(=O)C(F)(F)F)C/C1=C\c1ccccc1: F
C=C1CCC2C(C)(CO)C(O)CCC2(C)C1C/C=C1/CCOC1=O (stereo unspecified): F
CN(C)CCCNc1ccc2ncn3c4ccccc4c(=O)c1c23: F
Cc1nc(-c2cccnc2)sc1C(=O)/C=C/c1ccc(Cl)cc1Cl: F
O=P(CN1CCOCC1)(c1ccccc1)c1ccccc1: F

Outcome logged for CSc1nc(NC2OCC(OC(C)=O)C(OC(C)=O)C2OC(C)=O)c2c(n1)OCC2=O (stereo unspecified) in this assay:
F

Record: `N#C/C(=C\c1ccc2ccccc2c1)C(=O)c1ccccc1`
F

Record: `N#CCc1nc2cc(C(F)(F)F)ccc2s1`
F

Record: `CCOC(OCC)[C@H](N)[C@@H](O)[C@@H](O)[C@H]1COC(C)(C)O1`
F

Record: `CCOC(=O)Cn1nc2ccc(Nc3c(C)[n+]([O-])c4cc(F)c(OCC)cc4[n+]3[O-])cc2n1`
F

Record: `COCN1C(=O)[C@@H]2CCCN2C(=O)c2cc(Cl)ccc21`
F

Record: `CCOC(=O)[C@@H]1C[C@H]1c1ccc(O)c(O)c1`
F

Record: COC(=O)[C@H](C)[C@H]1CC[C@@](C)([C@H]2CC3C(C)(C)[C@H]4CCC(C)=C[C@H]4C[C@@]3(C)O2)OO1 (stereo partly specified)
F

Record: O=C(OC1CCC(=C2SCCCS2)[C@H]1C1SCCCS1)c1ccccc1 (stereo partly specified)
F

Cited source: ChEMBL document CHEMBL1201862
